The measurements presented in this section are drawn from ChEMBL document CHEMBL1201862.

# key: entry, value: GI50
Tested on: TK-10
experiment.notes: NCI tumour cell line growth inhibition, 48 h
Calls of active or inactive are those of the source. Cut-off read from the data, not from the text of the source: active = GI50 up to about 1.1 µM and inactive = higher.

# molecule, tested.target, GI50
data = [
    ("[N-]=[N+]=C1C(=O)c2ccccc2-c2ccccc21", "TK-10", "54 µM (inactive)"),
    ("O=[N+]([O-])c1nccn1CC(O)c1ccc(F)cc1 (stereo unspecified)", "TK-10", "> 100 µM (inactive)"),
    ("C[N+](C)(N)CCC[N+](C)(C)N", "TK-10", "> 100 µM (inactive)"),
    ("COc1c2c(cc3oc(=O)ccc13)OC(C)(C)C=C2 [XANTHOXYLETIN]", "TK-10", "30.9 µM (inactive)"),
    ("COC(=O)C1CC23C=CCN4CC(C2C)C2(c5ccccc5NC12)C43 (stereo unspecified)", "TK-10", "> 100 µM (inactive)"),
    ("C1CN1c1nc(N2CC2)nc(N2CC2)n1", "TK-10", "24 µM (inactive)"),
    ("CC1CN=C(N(C(=O)Nc2ccc(F)c(Cl)c2)c2ccccc2)S1 (stereo unspecified)", "TK-10", "25.9 µM (inactive)"),
    ("CC(C)(C)OC(=O)CCCCCNC(=O)CCCCCNC(=O)CCC(CN(CC(=O)OCc1ccccc1)CC(=O)OCc1ccccc1)N(CC(=O)OCc1ccccc1)CC(=O)OCc1ccccc1 (stereo unspecified)", "TK-10", "> 100 µM (inactive)"),
    ("O=Cc1ccc2c(c1-c1c(C=O)ccc3c1OCO3)OCO2", "TK-10", "> 100 µM (inactive)"),
    ("C=C(C)C(=O)CC[C@@H](C)[C@H]1[C@@H](OC2OC(CO)C(O)C(O)C2O)C[C@@]2(C)[C@@H]3C[C@H](O)C4C(C)(C)[C@@H](OC5OC(CO)C(O)C(O)C5O)CC[C@@]45C[C@@]35CC[C@]12C (stereo partly specified)", "TK-10", "> 100 µM (inactive)"),
    ("COC(=O)c1nc(Cl)nc(Cl)c1Cl", "TK-10", "21.2 µM (inactive)"),
    ("COc1c(O)cc2oc(-c3ccc(O)cc3)cc(=O)c2c1O [HISPIDULIN]", "TK-10", "39.2 µM (inactive)"),
    ("CCOc1cc(C2CC(c3ccc(NS(=O)(=O)c4cc([N+](=O)[O-])ccc4C)cc3)=NN2C(=O)c2ccccc2)ccc1O (stereo unspecified)", "TK-10", "14.2 µM (inactive)"),
    ("COc1cc(/C=c2/c3ccccc3n3c2cc(-c2ccccc2)[n+]3C)cc(OC)c1OC", "TK-10", "5.33 µM (inactive)"),
    ("Fc1ccc2nc3n(c2c1)C(c1c(Cl)cccc1Cl)SC3 (stereo unspecified)", "TK-10", "> 100 µM (inactive)"),
    ("CNc1nc(OC)c2c(n1)n(C)c[n+]2C [HETEROMINE B]", "TK-10", "> 100 µM (inactive)"),
    ("N#CCCCCCOCCOCCOCCOCCOCCCCCC#N", "TK-10", "> 100 µM (inactive)"),
    ("O=C1OCc2cccc3c2-c2c1cccc2C(=O)OC3", "TK-10", "> 100 µM (inactive)"),
    ("COc1ccc(C[C@@H](CO)NC2=C(C#N)CCC2)cc1", "TK-10", "63.8 µM (inactive)"),
    ("Cc1ccsc1/C=N/Nc1ncccn1", "TK-10", "> 100 µM (inactive)"),
    ("N#CCCC(C=O)(CCC#N)CCC#N", "TK-10", "> 100 µM (inactive)"),
]

* * *

GI50 by entry:
System: OVCAR-5
experiment.notes: NCI tumour cell line growth inhibition, 48 h
Calls of active or inactive are those of the source. Cut-off read from the data, not from the text of the source: active = GI50 up to about 1.1 µM and inactive = higher.
quantity.measured: GI50

# compound, val
rows = [
    ("COC(=O)[C@H]1C=C[C@@H](C)n2c(=O)c3ccccc3c(=O)n21", "> 100 µM (inactive)"),
    ("O=c1c(F)cn2c(=O)n1CCCCCCCn1c(=O)c(F)cn(c1=O)CCCCCCC2", "> 100 µM (inactive)"),
    ("C=CC1(NC(=O)c2ccccc2)CCC(C(C)(C)C)CC1 (stereo unspecified)", "28.1 µM (inactive)"),
    ("N#CCCCCCOCCOCCOCCOCCOCCCCCC#N", "> 100 µM (inactive)"),
    ("CCC1c2[nH]c3ccccc3c2C[C@H]2C(=O)NC(COC(C)(C)C)C(=O)N12 (stereo partly specified)", "47.3 µM (inactive)"),
    ("OCCNc1ncnc2[nH]cnc12", "> 100 µM (inactive)"),
]

* * *

System: SF-268
experiment.notes: NCI tumour cell line growth inhibition, 48 h
Calls of active or inactive are those of the source. Cut-off read from the data, not from the text of the source: active = GI50 up to about 1.1 µM and inactive = higher.
Listed here are compounds together with their documented GI50.

# compound, GI50
rows = [
    ("CC(C)N/C(N)=N/C#N", "> 100 µM (inactive)"),
    ("O=c1c2cc3c(cc2[nH]c2ncccc12)OCO3", "> 10 µM (inactive)"),
    ("C=C(C)[C@@]1(OC(=O)c2cc([N+](=O)[O-])cc([N+](=O)[O-])c2)C[C@@H]2CCCC[C@@H]21", "> 100 µM (inactive)"),
    ("CC(=O)OC1CCC2(C)C(=CCC3C2CCC2(C)C3CC3OC4(CCC(C)CN4)C(C)C32)C1 (stereo not given)", "> 100 µM (inactive)"),
    ("O=[N+]([O-])c1ccc2c(c1)C1=NN(c3ccccc3)C(c3ccccc3Br)C1CCC2 (stereo not given)", "21.9 µM (inactive)"),
]

* * *

Reported GI50 values for a set of molecules
Test system: SF-295
experiment.notes: NCI tumour cell line growth inhibition, 48 h
The source made the active and inactive calls. Rule as the data show it: active = GI50 up to about 1.1 µM and inactive = higher.

# molecule, GI50
data = [
    ("C=C(C)[C@@]1(OC(=O)c2cc([N+](=O)[O-])cc([N+](=O)[O-])c2)C[C@@H]2CCCC[C@@H]21", "72.9 µM (inactive)"),
    ("Cc1ccccc1NC(=O)C(=O)C(C1OC(=O)c2ccccc21)[N+](=O)[O-] (stereo not given)", "> 100 µM (inactive)"),
    ("c1ccc2cc3c(cc2c1)OP1(Oc2cccc4cccnc24)(O3)Oc2cc3ccccc3cc2O1", "4.67 µM (inactive)"),
    ("O=C1N=C(SC2OC(CO)C(O)C(O)C2O)S/C1=C\\c1ccccc1 (stereo not given)", "> 100 µM (inactive)"),
    ("C=C1C(=O)OC2/C=C(/C)C3CC(O)C(C)(CC(OC(=O)/C(C)=C/C)C12)O3 (stereo not given)", "> 39.4 µM (inactive)"),
    ("Cc1ccc(NC(=O)CCc2n[nH]c(=S)o2)cc1", "> 100 µM (inactive)"),
    ("COc1ccc(N[C@H](C[S+]([O-])c2ccc(C)cc2)C(F)(F)F)cc1 (stereo not given in full)", "> 100 µM (inactive)"),
    ("COc1cccc(N2C(=O)/C(=C\\c3ccccc3)SC2c2cc(OC)c(OC)c(OC)c2)c1 (stereo not given)", "35.5 µM (inactive)"),
    ("Fc1cc(-c2cc(-c3ccc4c(c3)OCO4)n[nH]2)c(Cl)cc1Cl", "3.05 µM (inactive)"),
    ("COc1ccc(-n2c(=O)[nH]n(C(C)=O)c2=O)cc1", "> 100 µM (inactive)"),
]

* * *

Tested on: HL-60
experiment.notes: NCI tumour cell line growth inhibition, 48 h
Calls of active or inactive are those of the source. Cut-off read from the data, not from the text of the source: active = GI50 up to about 1.1 µM and inactive = higher.
Possible outcomes: active, inactive

# compound, assigned.label
records = [
    ("CS(=N)(=O)CCC(N)P(=O)(O)O (stereo unspecified)", "inactive"),
    ("ClCCN1CCC2(CC1)SSC1(CCN(CCCl)CC1)S2", "inactive"),
    ("CCOC(=O)C1(C(=O)OCC)OC(=O)NC2=C1CCCC2", "inactive"),
    ("COc1ccc(C(=O)N(C(=O)N2CCN(c3ccccc3)CC2)S(=O)(=O)c2ccccc2)cc1", "inactive"),
    ("CC(C)(C)OC(=O)c1cccnc1/C=N/O", "inactive"),
    ("O=C1NC(c2cccc(OCc3ccccc3)c2)Nc2ccccc21 (stereo unspecified)", "active"),
]

* * *

Overview of reported GI50 across a group of molecules:
System: NCI-H23
experiment.notes: NCI tumour cell line growth inhibition, 48 h
Active and inactive are the calls of the source. Cut-off read from the data, not from the text of the source: active = GI50 up to about 1.1 µM and inactive = higher.

# molecule, GI50
records = [
    ("CC(=O)Nc1nc(C)c(S(=O)(=O)NC(=O)NC2NC(=O)NC2=O)s1 (configuration not stated)", "> 100 µM (inactive)"),
    ("CCOC(=O)c1ccc(Nc2cnc3cc(C(F)(F)F)ccc3n2)cc1", "> 100 µM (inactive)"),
    ("CC(C)(C)OC(=O)N(CCCCNC(=O)c1ccccc1)CCCNC(=O)c1ccccc1", "> 100 µM (inactive)"),
    ("O=Cc1ccc2c(c1-c1c(C=O)ccc3c1OCO3)OCO2", "> 100 µM (inactive)"),
    ("N#Cc1ccc(/C=[N+](/C=c2ccc(=C=[N-])cc2)N(CCO)C2=NCCN2)cc1", "> 100 µM (inactive)"),
    ("N[C@H]1CCc2c1nc1c(c2-c2ccccc2)CC[C@@H]1N", "25.2 µM (inactive)"),
    ("O=c1cc(-c2cccnc2)[nH]c2cc3c(cc12)OCO3", "10.3 µM (inactive)"),
    ("O=[N+]([O-])c1nccn1CC(O)c1ccc(F)cc1 (configuration not stated)", "> 100 µM (inactive)"),
    ("CC1(C)C2CCC1(C)C(NC(=O)COCCOCC(N)=O)C2 (configuration not stated)", "> 100 µM (inactive)"),
    ("COc1cc([C@H]2Oc3cc(O)c4c(=O)cc(-c5ccc(O)cc5)oc4c3O[C@@H]2CO)ccc1O", "14.6 µM (inactive)"),
    ("BrC1=CN2C[n+]3cc(Br)c4ccccc4c3N=C2c2ccccc21", "21.1 µM (inactive)"),
    ("O=C(c1ccccc1)N1C(=S)NC(=N/c2ccccc2)/C1=N\\c1ccccc1", "> 100 µM (inactive)"),
    ("CC(C)(C)c1cc(C2COC(=O)COCCOCC(=O)OCCOCCO2)cc(C(C)(C)C)c1O (configuration not stated)", "42.7 µM (inactive)"),
    ("O=c1oc2cc(O)ccc2c2oc3cc(O)ccc3c12", "58.5 µM (inactive)"),
    ("COc1c(O)cc2oc(-c3ccc(O)cc3)cc(=O)c2c1O", "42.2 µM (inactive)"),
    ("CCc1cccc(C)c1NC(=O)C(=O)Cc1nc2ccccc2o1", "> 100 µM (inactive)"),
    ("COC(CC1(OC)OC(=O)C=C1N)OC (configuration not stated)", "> 100 µM (inactive)"),
    ("Cc1cccc(NC(=S)N/N=C(/c2ccccc2)c2ccccn2)c1", "< 0.0282 µM (active)"),
    ("CC(C)(C)OC(=O)CCC1NC(=O)[C@@H]2Cc3c([nH]c4ccccc34)C(C3CCCCC3)N2C1=O (some centres not stated)", "39.6 µM (inactive)"),
    ("Cc1ccc(C2(O)CC(c3ccc([N+](=O)[O-])o3)=NN2C(=O)COc2ccc(Cl)cc2)cc1 (configuration not stated)", "5.2 µM (inactive)"),
    ("C1OC1CO[C@@H]1CO[C@H]2[C@@H]1OC[C@H]2OCC1CO1 (some centres not stated)", "> 100 µM (inactive)"),
    ("Cc1nc2ccccc2c(=O)n1/N=C(\\N=N\\c1cc(Cl)ccc1Cl)c1ccccc1", "50.7 µM (inactive)"),
    ("CCN(CC)CCNc1ccc2nnn3c4ccc(OC)cc4c(=O)c1c23", "8.49 µM (inactive)"),
    ("CCCCOc1ccc(NC(=N)Nc2ccc(Cl)cc2)cc1", "1.09 µM (active)"),
    ("O=C(Nc1nc2ccccc2n1Cc1ccccc1)NC12CC3CC(CC(C3)C1)C2", "42.9 µM (inactive)"),
    ("CCCCc1ccc(Nc2nc(SC)c3[nH]cnc3n2)cc1", "28.6 µM (inactive)"),
    ("Nc1ccccc1OCc1cc(=O)c(OCc2ccccc2)co1", "39.6 µM (inactive)"),
    ("CC1CN=C(N(C(=O)Nc2ccc(F)c(Cl)c2)c2ccccc2)S1 (configuration not stated)", "19.2 µM (inactive)"),
    ("C=C1c2nc3ccccc3n2C=C(c2ccc(C)cc2)N1c1ccc(OC)cc1", "> 73.6 µM (inactive)"),
    ("Cc1ccc(C(=O)N/N=C(\\N=N\\c2ccc([N+](=O)[O-])cc2)c2ccc(N(CCC#N)CCC#N)cc2C)cc1", "> 100 µM (inactive)"),
    ("O=C(c1ccc(Cl)cc1)C1OC12C(=O)Nc1ccccc12 (configuration not stated)", "15.5 µM (inactive)"),
    ("c1ccc(SC23C4C5C6C4C2C6C53)nc1 (configuration not stated)", "> 100 µM (inactive)"),
    ("Clc1cccc(-c2nnc(-c3nn(-c4ccccc4)c4nc5ccccc5nc34)o2)c1", "> 100 µM (inactive)"),
    ("Cc1ccc(OP2(=O)Oc3ccc4ccccc4c3CN2c2ccc(Cl)cc2)cc1C (configuration not stated)", "> 100 µM (inactive)"),
    ("COC1(C)CNCC(C)(C)NC(=O)C(C)(OC)CNCC(C)(C)NC1=O (configuration not stated)", "> 100 µM (inactive)"),
    ("O=C1OCC(CN2CCC(n3c(=O)[nH]c4ccccc43)CC2)=C1c1ccccc1", "21.2 µM (inactive)"),
    ("CC(/C=N/N(C)C1=NCCCCN1)=N/N(C)C1=NCCCCN1", "> 100 µM (inactive)"),
    ("CC(C)NC(=O)OCc1c2c(n(C)c1COC(=O)NC(C)C)-c1cc(Cl)c(Cl)cc1CC2", "22.1 µM (inactive)"),
    ("CC(=O)OC1=CC2(OC(C)=O)CC(C)(C)C1C1C(=O)C=CC(=O)C12 (configuration not stated)", "> 73.1 µM (inactive)"),
    ("O=c1nc2ccc3sc4ccccc4c(=O)c3n2c(=O)[nH]1", "> 100 µM (inactive)"),
    ("O=C1c2ccccc2C(=O)c2nc(-c3ccccc3)c(-c3ccccc3)nc21", "17.6 µM (inactive)"),
    ("O=C(c1ccccc1)c1ccc(C(c2c(O)c3ccccc3oc2=O)c2c(O)c3ccccc3oc2=O)cc1", "20 µM (inactive)"),
]
